# test.protocol: Quantitative high throughput screen for delayed death inhibitors of the malarial parasite plastid, 48 hour incubation (AID 488752); note: nearly all actives have a fitted effect of over 65% in size
# test.settings: Plasmodium falciparum growth; series mostly up to 28.7 µM
Inconclusive results are not listed. Active and inactive are the calls of the source. Calls come from the whole dose curve; as a rule, active = well fitted inhibition curve with a large enough effect; inconclusive = small, poorly fitted or top-dose-only effect, or effect the other way; inactive = flat fitted curve, though single readings scatter.
Write down one outcome, taken from active, inactive

Study these solved cases before continuing.
C[C@@H](Oc1ccc(Oc2cnc3ccc(Cl)cc3n2)cc1)C(=O)O :: inactive
CCCC1O[C@@H]2C[C@H]3[C@@H]4CCC5=CC(=O)C=C[C@]5(C)C4[C@@H](O)C[C@]3(C)[C@]2(C(=O)CO)O1 (stereo not given in full) :: active
Nc1ncnc2c1nc(Br)n2C1O[C@H]2COP(=O)(O)O[C@@H]2C1O (stereo not given in full) :: inactive
CN(C)CCCO[C@H]1C([C@H](O)CO)O[C@@H]2OC(C)(C)O[C@@H]21 (stereo not given in full) :: inactive

Now examine the next entry.
Task item: So what was the verdict on `NC(=NCc1ccc(Cl)c(Cl)c1)NC(=O)c1nc(Cl)c(N)nc1N` in this test?
Reply: active
